SYSTEM TESTED: APC (Homo sapiens, UniProt P04070)
Sequence (P04070 212-461 limits assumed): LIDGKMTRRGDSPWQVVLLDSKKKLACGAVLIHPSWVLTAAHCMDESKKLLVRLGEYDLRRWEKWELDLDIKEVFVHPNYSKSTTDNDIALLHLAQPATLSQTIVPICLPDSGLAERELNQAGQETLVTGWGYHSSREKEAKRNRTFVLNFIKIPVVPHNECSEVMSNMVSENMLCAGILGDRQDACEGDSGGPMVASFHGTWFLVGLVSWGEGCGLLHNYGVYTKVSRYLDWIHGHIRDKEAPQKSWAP
Sequence (P04070 43-197 limits assumed): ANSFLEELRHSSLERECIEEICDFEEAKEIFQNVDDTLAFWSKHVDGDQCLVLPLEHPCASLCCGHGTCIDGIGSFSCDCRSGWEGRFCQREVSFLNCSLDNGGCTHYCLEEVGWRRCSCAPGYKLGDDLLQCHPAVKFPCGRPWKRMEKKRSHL
Kindly apply the following: label 1 if IC50 is less than 5000 nM, label 0 in every other case.

| COMPOUND | DISCRETE LABEL |
| --- | --- |
| CC(C)C1C(=O)N(Cc2ccc3ccc(C(=N)N)cc3c2)c2ccc(OC3CCN(C(=N)N)CC3)cc21 (stereo not drawn) | label 1 |
| CC(=N)N1CCC(Oc2ccc3c(c2)CC(=O)N3Cc2ccc3ccc(C(=N)N)cc3c2)CC1 | label 0 |
| CC(=N)N1CCC(Oc2ccc3c(c2)C(C)(C)C(=O)N3Cc2ccc3ccc(C(=N)N)cc3c2)CC1 | label 1 |
| CC1(C)C(=O)N(Cc2ccc3ccc(C(=N)N)cc3c2)c2ccc(OC3CCN(C(=N)N)CC3)cc21 | label 1 |
| CC(=N)N1CCC(Oc2ccc3c(c2)/C(=C/C(=O)O)C(=O)N3Cc2ccc3ccc(C(=N)N)cc3c2)CC1 | label 0 |
| CC(=N)N1CCC(Oc2ccc3c(c2)C(C(C)C)C(=O)N3Cc2ccc3ccc(C(=N)N)cc3c2)CC1 (stereo not drawn) | label 1 |

###

SYSTEM TESTED: prothrombinase complex (Homo sapiens)
Sequence (P00742 235-488 limits assumed): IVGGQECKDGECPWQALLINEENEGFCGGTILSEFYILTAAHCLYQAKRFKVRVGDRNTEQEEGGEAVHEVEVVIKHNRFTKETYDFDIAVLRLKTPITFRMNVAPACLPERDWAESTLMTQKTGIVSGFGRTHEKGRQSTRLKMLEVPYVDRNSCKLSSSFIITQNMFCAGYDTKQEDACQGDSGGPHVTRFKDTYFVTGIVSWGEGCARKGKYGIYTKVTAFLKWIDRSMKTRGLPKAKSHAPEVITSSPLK
Sequence (P00742 41-179 limits assumed): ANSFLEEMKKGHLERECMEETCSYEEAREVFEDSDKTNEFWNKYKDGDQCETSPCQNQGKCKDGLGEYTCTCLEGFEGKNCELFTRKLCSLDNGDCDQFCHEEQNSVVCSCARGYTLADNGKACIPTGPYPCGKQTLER
Sequence (P12259 29-737 partner limits assumed): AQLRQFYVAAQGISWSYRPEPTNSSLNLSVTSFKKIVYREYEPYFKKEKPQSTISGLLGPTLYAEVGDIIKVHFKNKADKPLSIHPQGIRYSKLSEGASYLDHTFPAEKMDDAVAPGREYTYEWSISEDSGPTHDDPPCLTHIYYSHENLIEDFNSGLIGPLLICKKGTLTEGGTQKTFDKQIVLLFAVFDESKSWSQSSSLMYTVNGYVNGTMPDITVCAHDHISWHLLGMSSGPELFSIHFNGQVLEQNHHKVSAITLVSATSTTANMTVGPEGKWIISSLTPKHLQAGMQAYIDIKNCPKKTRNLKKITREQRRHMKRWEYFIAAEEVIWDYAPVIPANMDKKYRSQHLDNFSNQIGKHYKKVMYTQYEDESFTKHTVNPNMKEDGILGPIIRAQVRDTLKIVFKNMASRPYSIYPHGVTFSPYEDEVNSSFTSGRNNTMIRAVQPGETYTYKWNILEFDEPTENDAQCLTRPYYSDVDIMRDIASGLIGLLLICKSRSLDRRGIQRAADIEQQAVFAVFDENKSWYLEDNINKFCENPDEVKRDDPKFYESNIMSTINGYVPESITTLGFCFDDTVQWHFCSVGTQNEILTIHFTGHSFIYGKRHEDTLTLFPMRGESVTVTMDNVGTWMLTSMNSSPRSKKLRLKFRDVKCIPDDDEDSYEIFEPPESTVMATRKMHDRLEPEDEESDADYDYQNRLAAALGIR
Sequence (P12259 1574-2224 partner limits assumed): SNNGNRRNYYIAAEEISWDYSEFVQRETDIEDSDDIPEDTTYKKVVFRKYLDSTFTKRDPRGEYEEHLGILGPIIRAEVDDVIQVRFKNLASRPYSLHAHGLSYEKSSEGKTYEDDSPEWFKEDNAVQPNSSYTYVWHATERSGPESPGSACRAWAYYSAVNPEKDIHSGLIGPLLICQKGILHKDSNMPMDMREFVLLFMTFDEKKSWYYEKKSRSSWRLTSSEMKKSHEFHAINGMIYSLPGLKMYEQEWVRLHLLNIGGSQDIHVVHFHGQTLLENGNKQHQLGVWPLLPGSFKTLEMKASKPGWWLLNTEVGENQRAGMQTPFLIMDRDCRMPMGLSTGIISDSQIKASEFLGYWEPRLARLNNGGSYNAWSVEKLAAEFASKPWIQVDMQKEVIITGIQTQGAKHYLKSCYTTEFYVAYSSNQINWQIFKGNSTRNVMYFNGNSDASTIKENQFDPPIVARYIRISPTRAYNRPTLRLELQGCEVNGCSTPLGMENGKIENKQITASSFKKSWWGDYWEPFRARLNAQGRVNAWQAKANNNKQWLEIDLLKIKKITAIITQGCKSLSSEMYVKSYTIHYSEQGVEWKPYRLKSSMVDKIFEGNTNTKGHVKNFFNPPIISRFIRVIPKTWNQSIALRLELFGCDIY
EXPERIMENT: prothrombinase inhibition assay, plasma free system
MEASUREMENT PARAMETERS: read-out: IIASE IC50

| MOLECULE | IC50 / µM |
| --- | --- |
| CC(=N)N1CCC(Oc2ccc3c(c2)/C(=C/c2ccc(Cl)cc2)C(=O)N3Cc2ccc3ccc(C(=N)N)cc3c2)CC1 | 0.0174 |
| CC(=N)N1CCC(Oc2ccc3c(c2)C(C(C)C)C(=O)N3Cc2ccc3ccc(C(=N)N)cc3c2)CC1 (centres unmarked) | 0.0363 |
| CC(=N)N1CCC(Oc2ccc3c(c2)C(CC(=O)O)C(=O)N3Cc2ccc3ccc(C(=N)N)cc3c2)CC1 (centres unmarked) | 0.0904 |
| CC(=N)N1CCC(Oc2ccc3c(c2)/C(=C/c2ccc(F)cc2)C(=O)N3Cc2ccc3ccc(C(=N)N)cc3c2)CC1 | 0.0193 |
| CC(=N)N1CCC(Oc2ccc3c(c2)CC(=O)N3Cc2ccc3ccc(C(=N)N)cc3c2)CC1 | 0.504 |
| CC(C)C1C(=O)N(Cc2ccc3ccc(C(=N)N)cc3c2)c2ccc(OC3CCN(C(=N)N)CC3)cc21 (centres unmarked) | 0.116 |
| CC(=N)N1CCC(Oc2ccc3c(c2)/C(=C/C(=O)O)C(=O)N3Cc2ccc3ccc(C(=N)N)cc3c2)CC1 | 0.117 |
| CC(C)=C1C(=O)N(Cc2ccc3ccc(C(=N)N)cc3c2)c2ccc(OC3CCN(C(=N)N)CC3)cc21 | 0.0198 |
| CC(=N)N1CCC(Oc2ccc3c(c2)/C(=C/c2ccccc2)C(=O)N3Cc2ccc3ccc(C(=N)N)cc3c2)CC1 | 0.0084 |
| CC1(C)C(=O)N(Cc2ccc3ccc(C(=N)N)cc3c2)c2ccc(OC3CCN(C(=N)N)CC3)cc21 | 0.264 |
| CC(=N)N1CCC(Oc2ccc3c(c2)C(C)(C)C(=O)N3Cc2ccc3ccc(C(=N)N)cc3c2)CC1 | 0.163 |

###

Target or system factor Xa (Homo sapiens, UniProt P00742): recorded IC50 listed per item.

| MOLECULE | IC50 / nM |
| --- | --- |
| CC(=N)N1CCC(Oc2ccc3c(c2)C(CC(=O)O)C(=O)N3Cc2ccc3ccc(C(=N)N)cc3c2)CC1 (stereo not drawn) | 53.6 |
| CC(C)C1C(=O)N(Cc2ccc3ccc(C(=N)N)cc3c2)c2ccc(OC3CCN(C(=N)N)CC3)cc21 (stereo not drawn) | 28.4 |
| CC(=N)N1CCC(Oc2ccc3c(c2)/C(=C/c2ccccc2)C(=O)N3Cc2ccc3ccc(C(=N)N)cc3c2)CC1 | 2.82 |
| CC(=N)N1CCC(Oc2ccc3c(c2)C(C(C)C)C(=O)N3Cc2ccc3ccc(C(=N)N)cc3c2)CC1 (stereo not drawn) | 18.7 |
| CC(=N)N1CCC(Oc2ccc3c(c2)CC(=O)N3Cc2ccc3ccc(C(=N)N)cc3c2)CC1 | 13 |
| CC(=N)N1CCC(Oc2ccc3c(c2)/C(=C/c2ccc(Cl)cc2)C(=O)N3Cc2ccc3ccc(C(=N)N)cc3c2)CC1 | 5.76 |
